Just for reference, patent US12448369B2 is where these values come from.

# Tested on: Porcine atria myofibrils (atrial myosin ATPase)
# assay overview: Myofibril ATPase assay, porcine atria myofibrils
# Assay type: biochemical
# experimental context: porcine atria myofibrils; Y75 value (75% activity relative to no compound)
Please respond with reported Atrial EC25 for every item in the list.

# return Atrial EC25 for each item in the list
1. Cc1nccc2[nH]c(=O)c([C@@H](C)C(=O)N[C@@H](C)c3ccc(C#N)cc3F)c(C)c12 (single isomer, unassigned)
2. Cc1nccc2[nH]c(=O)c(CC(=O)N[C@@H]3CNc4cc(F)cc(F)c43)c(C)c12 (single isomer, unassigned)
3. Cc1nccc2[nH]c(=O)c(CC(=O)N[C@H](C)c3ccncc3)c(C)c12 (single isomer, unassigned)
4. Cc1c(C(C)C(=O)N[C@@H](C)c2ccc(F)cc2F)c(=O)[nH]c2ccnc(I)c12 (stereo partly shown)
5. Cc1c(CC(=O)N[C@@H](CO)c2ncc(F)cc2F)c(=O)[nH]c2ccc(C#N)nc12
6. Cc1c(CC(=O)N[C@@H](C)c2ccc(F)cc2F)c(=O)[nH]c2ccc(OC(F)(F)F)nc12

["0.30 µM", "0.31 µM", "100.00 µM", "0.76 µM", "2.40 µM", "0.11 µM"]

// Cc1cc2[nH]c(=O)c(CC(=O)N[C@@H](C)c3ccc(F)cc3F)c(C)c2cn1 : Atrial EC25 value = 100.00 µM
